- experimental.details: activity coefficient (dimensionless); of the first substance listed, at infinite dilution; xn = mol fraction of the nth substance listed
- experimental.parameters: 298.15 K; 101 kPa; Liquid; Chromatography; x1 = 0
Exam item: assign MET to entries whose activity coefficient is below 2 and NOT MET to entries at or above 2. Note that a value of exactly 2 receives NOT MET.

>>> print(df.to_string())
                                   compound  label_value
0  C1CCOC1 [tetrahydrofuran] + CCCCCCOCn1cc[n+](C)c1.O=S(=O)([N-]S(=O)(=O)C(F)(F)F)C(F)(F)F          MET
1  CCO [ethanol] + CCCCCCOCn1cc[n+](COCCCCCC)c1.O=S(=O)([N-]S(=O)(=O)C(F)(F)F)C(F)(F)F          MET
2  CCCCCCCCCC [decane] + CCCCCCOCn1cc[n+](COCCCCCC)c1.O=S(=O)([N-]S(=O)(=O)C(F)(F)F)C(F)(F)F      NOT MET
3  C=CCCC [1-pentene] + CCCCCCOCn1cc[n+](C)c1.O=S(=O)([N-]S(=O)(=O)C(F)(F)F)C(F)(F)F      NOT MET
4  CCCCCCCCC [nonane] + CCCCCCOCn1cc[n+](COCCCCCC)c1.O=S(=O)([N-]S(=O)(=O)C(F)(F)F)C(F)(F)F      NOT MET
5  C=CCCCC [hex-1-ene] + CCCCCCOCn1cc[n+](COCCCCCC)c1.O=S(=O)([N-]S(=O)(=O)C(F)(F)F)C(F)(F)F      NOT MET
6  C#CCCCCC [1-heptyne] + CCCCCCOCn1cc[n+](C)c1.O=S(=O)([N-]S(=O)(=O)C(F)(F)F)C(F)(F)F      NOT MET

---

# Lookup of reported activity coefficient keyed by entry
- experimental.details: activity coefficient (dimensionless); of the first substance listed, at infinite dilution; xn = mol fraction of the nth substance listed
- experimental.parameters: 338.15 K; 101 kPa; Liquid; Chromatography; x1 = 0
property.measured: activity coefficient

>>> print(df.to_string())
                                   compound  endpoint_value
0  COC(C)(C)C [2-methoxy-2-methylpropane] + CCCCCCOCn1cc[n+](COCCCCCC)c1.O=S(=O)([N-]S(=O)(=O)C(F)(F)F)C(F)(F)F           0.841
1  CCOCC [diethyl ether] + CCCCCCOCn1cc[n+](C)c1.O=S(=O)([N-]S(=O)(=O)C(F)(F)F)C(F)(F)F            1.41
2  Cc1ccc(C)cc1 [1,4-dimethylbenzene] + CCCCCCOCn1cc[n+](C)c1.O=S(=O)([N-]S(=O)(=O)C(F)(F)F)C(F)(F)F            1.48
3  C1CCOC1 [tetrahydrofuran] + CCCCCCOCn1cc[n+](COCCCCCC)c1.O=S(=O)([N-]S(=O)(=O)C(F)(F)F)C(F)(F)F           0.333
4  CCCOCCC [dipropyl ether] + CCCCCCOCn1cc[n+](COCCCCCC)c1.O=S(=O)([N-]S(=O)(=O)C(F)(F)F)C(F)(F)F             1.5
5  C1CCOC1 [tetrahydrofuran] + CCCCCCOCn1cc[n+](C)c1.O=S(=O)([N-]S(=O)(=O)C(F)(F)F)C(F)(F)F           0.479

Data provenance: the NIST ThermoML archive (doi:10.1016/j.fluid.2009.08.017)
